Values from the supplement of paper PMC5940239

- Test system: Madurella mycetomatis MM55
- method.description: IC90; higher = less potent
- condition.set: 7 days
quantity.kind: IC90 (µM)
One number for each entry, in µM.

Observe how each entry below is paired with its result.
INSERT INTO assay_data (molecule, unit_string, endpoint_result) VALUES
  ('Cc1cccc(Cn2ccc(NC(=O)c3ccc4c(c3)OCO4)n2)c1', 'µM', 90.7),
  ('Cc1cc(OCC(=O)NCc2ccccc2)c2cc(Br)ccc2n1', 'µM', 100);

Count: 4. Required value per item: IC90.
1. O=C(c1ccc(NCCO)cc1)C1C[C@H]1c1ccc(Cl)cc1 (some centres not stated)
2. Cc1nc(-c2cccc(NCc3ccccc3)c2)[nH]c1C
3. CCC(Sc1nc2ccccc2o1)C(=O)Nc1nccs1 (configuration not stated)
4. Cc1cc(C)nc(-n2nc(C)cc2Nc2ccccc2)n1

Response line:
1. 38
2. 93.6
3. 56.5
4. 91.3

Prompt line: Tell us which IC90 value is on record for `CCN(CC)CCCCCCNc1cc(OC)cc2c(C)ccnc12`
Response line: 17.8

---

- System: Madurella mycetomatis MM55
- condition.set: 7 days
quantity.kind: IC50 (µM)
Numbers only, in µM.

INSERT INTO measurements (mol_smiles, quantity_kind, unit_string, endpoint_result) VALUES
  ('O=C(Nc1nnc(-c2ccc(Cl)s2)o1)c1ccc(Cl)s1', 'IC50', 'µM', 54.3),
  ('Cc1ccccc1CN1CCC(O)(c2ccc(Cl)c(C(F)(F)F)c2)CC1', 'IC50', 'µM', 35.5);

Kindly review the next molecule as well.
Prompt line: Tell us which IC50 value is on record for `COc1cccc(-c2cc3c(Nc4cccnc4)nccc3[nH]2)c1`
Response line: 51.8

---

- Test system: Madurella mycetomatis MM55
- method.description: percent growth relative to solvent control; higher = less inhibition, active = 20 or less
- condition.set: 100 µM; 7 days
Provide the recorded percent growth for the entries that follow.
Give bare numbers, in %.

Count: 7. Required value per item: percent growth.
1. COc1cccc(-n2nnnc2S(C)(=O)=O)c1
2. O=C(Nc1ccc(C(F)(F)F)c(C(F)(F)F)c1)c1cc(Cl)ccc1O
3. Cc1ccc2cc(C3NC(=O)c4ccccc4N3)c(Cl)nc2c1 (stereo not drawn)
4. CC(Oc1ccccc1)C(=O)Nc1nc(-c2ccccn2)cs1 (stereo not drawn)
5. Cn1ccnc1CNCCS(=O)(=O)c1cccc(Nc2ccc(-c3cccc(F)c3)cn2)c1
6. O=C(Nc1cnc2ccccc2c1)c1cccc(-n2cnnn2)c1
7. O=C(Nc1nc(-c2ccccn2)cs1)C1CC1c1ccccc1F (stereo not drawn)

Response line:
1.2
-2.39
139
1.36
65.7
94.2
46.7

---

- Test system: Madurella mycetomatis MM55
- method.description: percent growth relative to solvent control; higher = less inhibition, active = 20 or less
- condition.set: 100 µM; 7 days
API: response.call in active, inactive

Solved entries (count: 2):
INSERT INTO assay_data (compound, assigned_label) VALUES
  ('CNCCC(Oc1ccc(C(F)(F)F)cc1)c1ccccc1 (stereo not drawn)', 'active'),
  ('CC(=O)Nc1ccc(NC(=O)c2cc(-c3cc(Cl)ccc3O)[nH]n2)cc1', 'inactive');

From here, focus on the item given below.
Prompt line: Fill in: this test's call for `Cc1cc(Nc2ccncc2)n2nc(C)c(-c3ccccc3Cl)c2n1` is ___
Response line: inactive
